Measured Parameter: melting point

In the examples that follow, each entry is paired with its recorded melting point.
Cc1ccc(NS(=O)(=O)c2ccc3c(=O)[nH]c(=O)[nH]c3c2)cc1: > 300 °C
NNS(=O)(=O)c1ccc2c(=O)[nH]c(=O)[nH]c2c1: 268 to 270 °C
O=C(O)c1ccccc1NS(=O)(=O)c1ccc2c(=O)[nH]c(=O)[nH]c2c1: 280 to 282 °C

# evaluate next
**Query** State, in one line, measured melting point of O=c1[nH]c(=O)c2ccc(S(=O)(=O)Nc3nccs3)cc2[nH]1
**Result** 265 to 267 °C

###

Biological target: PARP-1 (Homo sapiens, UniProt P09874)
Construct: purchased Trevigen 4690-096-K
Sequence (P09874 whole entry): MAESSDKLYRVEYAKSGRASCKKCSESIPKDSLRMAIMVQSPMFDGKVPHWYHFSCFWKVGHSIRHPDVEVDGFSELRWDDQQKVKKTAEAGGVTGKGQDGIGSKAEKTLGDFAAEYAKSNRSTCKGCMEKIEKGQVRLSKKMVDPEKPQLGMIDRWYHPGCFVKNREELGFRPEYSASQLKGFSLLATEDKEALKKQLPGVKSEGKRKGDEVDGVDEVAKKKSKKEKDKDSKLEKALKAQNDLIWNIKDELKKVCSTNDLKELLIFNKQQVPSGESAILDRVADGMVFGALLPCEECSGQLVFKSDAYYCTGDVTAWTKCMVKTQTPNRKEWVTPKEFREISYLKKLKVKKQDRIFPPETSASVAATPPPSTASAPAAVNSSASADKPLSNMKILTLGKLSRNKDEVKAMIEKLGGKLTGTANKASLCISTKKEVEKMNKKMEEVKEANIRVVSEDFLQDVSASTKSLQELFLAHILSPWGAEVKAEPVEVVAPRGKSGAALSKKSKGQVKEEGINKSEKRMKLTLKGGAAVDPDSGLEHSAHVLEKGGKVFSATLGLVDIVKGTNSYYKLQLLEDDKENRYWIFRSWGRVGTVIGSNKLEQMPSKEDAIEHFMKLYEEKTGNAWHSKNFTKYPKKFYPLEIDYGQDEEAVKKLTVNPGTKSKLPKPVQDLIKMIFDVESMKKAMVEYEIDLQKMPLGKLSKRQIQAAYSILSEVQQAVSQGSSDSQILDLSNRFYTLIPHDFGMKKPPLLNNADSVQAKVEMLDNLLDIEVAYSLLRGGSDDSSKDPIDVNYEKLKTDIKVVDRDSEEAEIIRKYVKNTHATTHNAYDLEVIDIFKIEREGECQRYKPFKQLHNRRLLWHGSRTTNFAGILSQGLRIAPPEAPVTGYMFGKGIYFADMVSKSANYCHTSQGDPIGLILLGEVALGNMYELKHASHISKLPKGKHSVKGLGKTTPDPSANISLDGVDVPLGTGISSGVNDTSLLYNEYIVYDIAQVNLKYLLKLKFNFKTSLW
Assay: In vitro PARP inhibition assay (HT F Homogeneous PARP Inhibition Assay Kit)
Assay type: biochemical
Measured Parameter: IC50 (nM)
Answer format: numeric, nM implied, no suffix.

**Query** State, in one line, measured IC50 of O=c1[nH]c(=O)c2ccc(S(=O)(=O)Nc3nccs3)cc2[nH]1 [Compound 4c]
**Result** 153
